Here, each record is paired with measured Kd data.
Biological target: Serine/threonine-protein kinase mTOR (Homo sapiens)
Assay: binders of mTOR FRB domain, biophysical, NMR (AID 1648)
Settings: NMR binding to FRB domain, chemical shift
Activity calls are given as the source filed them. No rule for the calls is given here.

Compound	Kd
Cc1nn(CC(=O)N2CCCCC2)c(=O)c2ccccc12	> 4 mM (inactive)
OCC(O)C(O)C(O)CO (configuration not stated)	> 4 mM (inactive)
Cn1c(=O)[nH]c(=O)c2c1ncn2CCN1CCCCC1	> 4 mM (inactive)
O=c1oc2ccccc2cc1O	> 4 mM (inactive)
N#Cc1c[nH]n2c(=O)cc(Cc3ccccc3)nc12	> 4 mM (inactive)
CC(=O)NCc1nc2ccccc2[nH]1	> 4 mM (inactive)

Kindly review the next compound as well.
Asked: Checklist item: Kd tested on Serine/threonine-protein kinase mTOR (Homo sapiens), entry Cc1cc(SCC(=O)Nc2nccs2)nc(=O)[nH]1 , value?
Given back: > 4 mM (inactive)

The origin of these recorded values is PubChem BioAssay AID1648.
